Where do the numbers come from? From ChEMBL document CHEMBL4825761.

# test description: Half life in Wistar Han rat by LC-MS/MS analysis
# Format: ADME
# assay setup: in vivo
measured parameter: half-life (h)
All answers are understood in h, so give the number only.

INPUT: # get_value(readout='half-life', item= "Cc1nccc(N2C[C@@H]3C[C@@H]3c3nc(C4(NC(=O)c5ccc(F)cc5)CC4)ccc32)n1" )
OUTPUT: 1.9

====

# test description: Volume of distribution in Wistar Han rat by LC-MS/MS analysis
# Assay type: ADME
# assay setup: in vivo
measured parameter: Vd (L/kg)
All answers are understood in L/kg, so give the number only.

INPUT: # get_value(readout='Vd', item= "Cc1nccc(N2C[C@@H]3C[C@@H]3c3nc(C4(NC(=O)c5ccc(F)cc5)CC4)ccc32)n1" )
OUTPUT: 1.4

====

# test description: Plasma concentration in CD1 mouse xenografted with mouse CT26 cells overexpressing human IDO1 at 3 mg/kg, po administered as single dose measured after 2 hrs by mass spectrometry
# Assay type: ADME, organism-based
measured parameter: concentration at 2 h

INPUT: # get_value(readout='concentration at 2 h', item= "Cc1nccc(N2CCCc3nc(C4(NC(=O)c5ccc(F)cc5)CC4)ccc32)n1" )
OUTPUT: 210 nM

====

# test description: Clearance in dog
# Assay type: ADME, Canis lupus familiaris
# assay setup: in vivo
measured parameter: clearance (mL/min/kg)
All answers are understood in mL/min/kg, so give the number only.

INPUT: # get_value(readout='clearance', item= "Cc1nccc(N2C[C@@H]3C[C@@H]3c3nc(C4(NC(=O)c5ccc(F)cc5)CC4)ccc32)n1" )
OUTPUT: 12.3

====

# test description: Volume of distribution in dog
# Assay type: ADME, Canis lupus familiaris
# assay setup: in vivo
measured parameter: Vd (L/kg)
All answers are understood in L/kg, so give the number only.

INPUT: # get_value(readout='Vd', item= "Cc1nccc(N2C[C@@H]3C[C@@H]3c3nc(C4(NC(=O)c5ccc(F)cc5)CC4)ccc32)n1" )
OUTPUT: 1.3

====

# test description: Oral bioavailability in dog
# Assay type: ADME, organism-based, Canis lupus familiaris
# assay setup: in vivo
measured parameter: bioavailability (%)
All answers are understood in %, so give the number only.

INPUT: # get_value(readout='bioavailability', item= "Cc1nccc(N2C[C@@H]3C[C@@H]3c3nc(C4(NC(=O)c5ccc(F)cc5)CC4)ccc32)n1" )
OUTPUT: 46

====

# assayed target: Indoleamine 2,3-dioxygenase 1 (Homo sapiens, UniProt P14902)
# Sequence (P14902 whole entry): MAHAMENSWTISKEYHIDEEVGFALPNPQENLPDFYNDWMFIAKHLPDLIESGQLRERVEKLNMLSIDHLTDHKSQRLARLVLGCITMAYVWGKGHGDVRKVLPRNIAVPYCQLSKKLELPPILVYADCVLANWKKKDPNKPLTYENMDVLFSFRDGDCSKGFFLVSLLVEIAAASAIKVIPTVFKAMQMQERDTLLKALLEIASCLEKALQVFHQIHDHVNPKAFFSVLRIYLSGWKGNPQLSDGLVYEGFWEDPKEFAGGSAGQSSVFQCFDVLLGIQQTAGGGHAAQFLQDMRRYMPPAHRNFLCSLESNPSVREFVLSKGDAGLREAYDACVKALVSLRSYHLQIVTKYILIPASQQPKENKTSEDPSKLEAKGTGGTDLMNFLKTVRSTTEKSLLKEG
# test description: Inhibition of IDO1 in human HeLa cells
# Format: cell-based
measured parameter: IC50 (nM)
All answers are understood in nM, so give the number only.

INPUT: # get_value(readout='IC50', item= "Cc1nccc(N2C[C@@H]3C[C@@H]3c3nc(C4(NC(=O)c5ccc(F)cc5)CC4)ccc32)n1" )
OUTPUT: 2

====

# test description: Half life in dog
# Type: ADME, Canis lupus familiaris
# assay setup: in vivo
measured parameter: half-life (h)
All answers are understood in h, so give the number only.

INPUT: # get_value(readout='half-life', item= "Cc1nccc(N2C[C@@H]3C[C@@H]3c3nc(C4(NC(=O)c5ccc(F)cc5)CC4)ccc32)n1" )
OUTPUT: 9
